TESTED TARGET: human FPR1 (Homo sapiens)
Construct: expressed in transfected cells
Sequence (P21462 whole entry): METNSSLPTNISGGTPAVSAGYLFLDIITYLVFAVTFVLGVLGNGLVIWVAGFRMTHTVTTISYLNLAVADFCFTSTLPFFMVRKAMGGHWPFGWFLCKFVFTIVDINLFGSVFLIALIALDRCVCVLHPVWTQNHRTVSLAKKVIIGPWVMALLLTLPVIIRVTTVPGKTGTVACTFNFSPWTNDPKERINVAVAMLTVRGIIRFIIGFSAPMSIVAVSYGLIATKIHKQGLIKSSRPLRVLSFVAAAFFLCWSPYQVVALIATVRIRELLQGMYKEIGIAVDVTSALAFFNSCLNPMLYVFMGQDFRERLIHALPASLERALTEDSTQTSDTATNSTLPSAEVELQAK
PROTOCOL DESCRIPTION: HTRF-based quantification of MAPK/ERK phosphorylation (ERK1/2 Thr202/Tyr204)
Assay type: cell-based
SETUP CONDITIONS: HeLa-FPR1 cells serum-starved 2 h; agonist 5 min, 37 °C; HTRF phospho-ERK1/2; four-parameter fit, Hill 1; mean and SEM, at least 5 independent measurements; read-out: ERK1/2 Activation logEC50 (converted)
Where a SMILES comes first, the peptide text is derived from it. The star is where a group is joined. For = O=C*
ENDPOINT LABEL: EC50 (µM)
Quick reminder: number only, in µM, skip the unit.

Examples with their reported EC50 follow.
>  <COMPOUND>
CC[C@H](C)[C@H](NC(=O)[C@H](CC(C)C)NC(=O)[C@H](CCCCN)NC(=O)[C@H](CCSC)NC(=O)[C@H](CC(C)C)NC(=O)[C@@H]1CCCN1C(=O)[C@H](CC(N)=O)NC(=O)[C@@H](NC(=O)[C@H](CCCCN)NC(=O)[C@H](CCCNC(=N)N)NC(=O)[C@H](CCSC)NC(=O)[C@@H]1CCCN1C(=O)[C@@H](NC(=O)[C@H](CCSC)NC=O)[C@@H](C)O)[C@@H](C)O)C(=O)N[C@@H](CC(N)=O)C(=O)O [CYTB] (For-MTPMRKTNPLMKLIN-OH)

>  <EC50, µM>
7.76

$$$$
>  <COMPOUND>
CSCC[C@H](NC=O)C(=O)N[C@@H](CCSC)C(=O)N[C@@H](Cc1ccc(O)cc1)C(=O)N[C@@H](C)C(=O)N[C@@H](CC(C)C)C(=O)N[C@@H](Cc1ccccc1)C(=O)O [MT-ND6] (For-MMYALF-OH)

>  <EC50, µM>
0.00219

$$$$

EC50 of CSCC[C@H](NC=O)C(=O)N[C@@H](CC(N)=O)C(=O)N1CCC[C@H]1C(=O)N[C@@H](CC(C)C)C(=O)N[C@@H](C)C(=O)N[C@@H](CCC(N)=O)C(=O)O [MT-ND2] (For-MNPLAQ-OH) on human FPR1 (Homo sapiens)? 6.17

====

TESTED TARGET: human FPR1 (Homo sapiens)
Construct: expressed in transfected cells
PROTOCOL DESCRIPTION: HTRF-based quantification of MAPK/ERK phosphorylation (ERK1/2 Thr202/Tyr204)
Assay type: cell-based
SETUP CONDITIONS: HeLa-FPR1 cells serum-starved 2 h; agonist 5 min, 37 °C; HTRF phospho-ERK1/2; four-parameter fit, Hill 1; mean and SEM, at least 5 independent measurements; read-out: ERK1/2 Activation logEC50 (converted)
Where a SMILES comes first, the peptide text is derived from it. The star is where a group is joined. For = O=C*
ENDPOINT LABEL: EC50 (nM)
Kindly provide the numeric value in nM only, without the unit symbol.

>  <COMPOUND>
CC(C)C[C@H](NC(=O)CN)C(=O)N[C@@H](CC(C)C)C(=O)N[C@@H](Cc1c[nH]c2ccccc12)C(=O)N[C@H](C(=O)N[C@@H](CCC(=O)O)C(=O)N[C@H](C(=O)NCC(=O)NCC(=O)N[C@@H](CCC(=O)O)C(=O)NCC(=O)N1CCC[C@H]1C(=O)NCC(=O)N1CCC[C@H]1C(=O)N[C@H](C(=O)O)[C@@H](C)O)C(C)C)C(C)C [gG2p20] (H-GLLWVEVGGEGPGPT-OH)

>  <ENDPOINT LABEL>
EC50

>  <OBSERVED RESULT>
708

$$$$

What EC50 value was documented for this compound, CC[C@H](C)[C@H](NC(=O)[C@H](CCSC)NC=O)C(=O)N[C@H](C(=O)N[C@H](C(=O)N[C@@H](CC(C)C)C(=O)O)[C@@H](C)CC)C(C)C [fMIVIL] (For-MIVIL-OH) ? 1.55

====

Parameter: EC50. Scope: all listed entries.
TESTED TARGET: human FPR1 (Homo sapiens)
Construct: expressed in transfected cells
PROTOCOL DESCRIPTION: cell-based
Where a SMILES comes first, the peptide text is derived from it. The star is where a group is joined. For = O=C*
Form entry: value (nM) — number only.

Answered examples (3):
>  <COMPOUND>
CSCC[C@H](NC=O)C(=O)N[C@@H](CCSC)C(=O)N[C@@H](Cc1ccc(O)cc1)C(=O)N[C@@H](C)C(=O)N[C@@H](CC(C)C)C(=O)N[C@@H](Cc1ccccc1)C(=O)O [MT-ND6] (For-MMYALF-OH)

>  <EC50 [nM]>
74.1

$$$$
>  <COMPOUND>
CC[C@H](C)[C@H](NC(=O)[C@H](CCSC)NC=O)C(=O)N[C@H](C(=O)N[C@H](C(=O)N[C@@H](CC(C)C)C(=O)O)[C@@H](C)CC)C(C)C [fMIVIL] (For-MIVIL-OH)

>  <EC50 [nM]>
0.871

$$$$
>  <COMPOUND>
CC[C@H](C)[C@H](NC(=O)[C@H](CC(C)C)NC(=O)[C@H](CCCCN)NC(=O)[C@H](CCSC)NC(=O)[C@H](CC(C)C)NC(=O)[C@@H]1CCCN1C(=O)[C@H](CC(N)=O)NC(=O)[C@@H](NC(=O)[C@H](CCCCN)NC(=O)[C@H](CCCNC(=N)N)NC(=O)[C@H](CCSC)NC(=O)[C@@H]1CCCN1C(=O)[C@@H](NC(=O)[C@H](CCSC)NC=O)[C@@H](C)O)[C@@H](C)O)C(=O)N[C@@H](CC(N)=O)C(=O)O [CYTB] (For-MTPMRKTNPLMKLIN-OH)

>  <EC50 [nM]>
3020

$$$$

// switching to the query compound
Requested read-out: EC50. Entry: CSCC[C@H](NC=O)C(=O)N[C@@H](CC(N)=O)C(=O)N1CCC[C@H]1C(=O)N[C@@H](CC(C)C)C(=O)N[C@@H](C)C(=O)N[C@@H](CCC(N)=O)C(=O)O [MT-ND2] (For-MNPLAQ-OH) 2040

Cited source: paper PMC7226602
